- experimental.system: T1, Cynomolgus CXCR2 (cynomolgus, UniProt Q28519 3-353 (rhesus entry))
- T1 chain: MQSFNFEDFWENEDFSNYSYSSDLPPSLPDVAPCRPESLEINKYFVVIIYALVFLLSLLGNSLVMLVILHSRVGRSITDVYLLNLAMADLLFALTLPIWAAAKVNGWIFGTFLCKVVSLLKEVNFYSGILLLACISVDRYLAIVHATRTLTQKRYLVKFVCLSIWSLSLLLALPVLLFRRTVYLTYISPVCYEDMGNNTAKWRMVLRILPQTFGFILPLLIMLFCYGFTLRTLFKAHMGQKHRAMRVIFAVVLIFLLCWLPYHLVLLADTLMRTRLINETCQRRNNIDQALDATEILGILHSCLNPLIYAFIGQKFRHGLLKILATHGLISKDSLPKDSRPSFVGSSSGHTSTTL
- assay.details: cell-based or functional assay
# note: boundary value 0.4 nM maps to -1; Cynomologus WBSC IC50 (vs rhGROα) below it maps to 1

Look over these answered cases.
>>> category_label("CXCR20034 (bispecific antibody, not shown: small tags and cut ends) EVQLVESGGGLVQAGGSLRLSCAASGRTFSDYAMGWFRQAPGKEREFVAAITWNGGRVFYTASVKGRFTISRDNAKNTMYLQMNSLKPEDTAVYYCAADKDRRTDYLGHPVAYWGQGTQVTVSSGGGGSGGGGSGGGGSGGGGSGGGGSGGGGSGGGGSEVQLVESGGELVQPGGSLRLSCAASGSILTINAMGWYRQAPGKQRELVVRRTRGGSTTYQDSVKGRFTISADIAKKTMYLQMNSLKPEDTAVYYCMLDDRGGVYWGQGTQVTVSS")
-1
>>> category_label("CXCR20030 (other, not shown: small tags and cut ends) EVQLVESGGGLVQAGGSLRLSCAASGRTFSDYAMGWFRQAPGKEREFVAAITWNGGRVFYTASVKGRFTISRDNAKNTMYLQMNSLKPEDTAVYYCAADKDRRTDYLGHPVAYWGQGTQVTVSSGGGGSGGGGSGGGGSGGGGSGGGGSGGGGSGGGGSEVQLVESGGGLVQAGGSLTLSCAVSGSTFRINTMGWYRRAPGKQRELVAARDRGGYINYVDSVKGRFTVSRDNAKPTMYLQMNSLKPEDTAVYYCHAGTQDRTGRNFDRWGQGTQVTVSS")
-1
>>> category_label("CXCR20014 (bispecific antibody, not shown: small tags and cut ends) EVQLVESGGGLVQPGGSLRLSCVASGSIVRINTMGWYRQTPGKQRELVADITSGGNINYIDAVKGRFTISRDNTKNTVYLQMNSLKPEDTAVYYCNAEIVVLVGVWTQRARTGNYWGQGTQVTVSSGGGGSGGGGSGGGGSGGGGSGGGGSGGGGSGGGGSEVQLVESGGELVQPGGSLRLSCAASGSILTINAMGWYRQAPGKQRELVVRRTRGGSTTYQDSVKGRFTISADIAKKTMYLQMNSLKPEDTAVYYCMLDDRGGVYWGQGTQVTVSS")
1
>>> category_label("CXCR20026 (bispecific antibody, not shown: small tags and cut ends) EVQLVESGGGLVQPGGSLRLSCVASGRIFSSNAMGWFRQAPGKEREFVAAITWRSGGSAYYADSAKGRFTISRDNAKNTVYLQMNSLKPEDTAVYYCAAGGSSWLSFPPDYWGQGTQVTVSSGGGGSGGGGSGGGGSGGGGSGGGGSGGGGSGGGGSEVQLVESGGGLVQAGESLRLSCAASGSTFDFKVMGWYRQPPGKQREGVAAIRLSGNMHYAESVKGRFTISKANAKNTVYLQMNSLRPEDTAVYYCKVNIRGQDYWGQGTQVTVSS")
1

As a next step, examine the binder that follows.
Is Cynomologus WBSC IC50 (vs rhGROα) of CXCR20028 (other, not shown: small tags and cut ends) EVQLVESGGGLVQPGGSLRLSCVASGSIVRINTMGWYRQTPGKQRELVADITSGGNINYIDAVKGRFTISRDNTKNTVYLQMNSLKPEDTAVYYCNAEIVVLVGVWTQRARTGNYWGQGTQVTVSSGGGGSGGGGSGGGGSGGGGSGGGGSGGGGSGGGGSEVQLVESGGGLVQAGGSLTLSCAVSGSTFRINTMGWYRRAPGKQRELVAARDRGGYINYVDSVKGRFTVSRDNAKPTMYLQMNSLKPEDTAVYYCHAGTQDRTGRNFDRWGQGTQVTVSS strictly below 0.4 nM? -1
